molecular target: HLA-A*02:01 (Homo sapiens, UniProt P04439, D140Y/D185E/D98H/E176V/E277Q/G131W/G231S/I119V/I121R/I166T/I218V/L300P/L318F/N151K/N90K/P208A/P217A/Q86G/Q94H/R138H/R169H/T345S); test: MHC binding assay (UV-ligand exchange, ELISA of stabilized MHC complexes); conditions: MHC class I binding score; binding to HLA-A*02:01 ranged by peptide exchange yield (UV-ligand exchange, ELISA)
VALUE_KIND: Peptide exchange

Illustrative cases are given below, each with its answer.
SUBSTANCE | Peptide exchange
298 (VMITKLVEV; listed as Homo sapiens) [compound 298] | ″+++″ (≥50% = +++)
94 (YLIDIKTIAI; listed as Homo sapiens) [compound 94] | ″++″ (≥20% = ++)
446 (QLIPALAKV; listed as Homo sapiens) [compound 446] | ″+++″ (≥50% = +++)
589 (KLYPQLPAEI; listed as Homo sapiens) [compound 589] | ″+++″ (≥50% = +++)
69 (FQLDPSSGVLVTV; listed as Homo sapiens) [compound 69] | ″+++″ (≥50% = +++)
1 (SLMEPPAVLLL; listed as Homo sapiens) [compound 1] | ″+++″ (≥50% = +++)
442 (GLLGGGGVLGV; listed as Homo sapiens) [compound 442] | ″+++″ (≥50% = +++)
214 (FLLDLDPLLL; listed as Homo sapiens) [compound 214] | ″+++″ (≥50% = +++)

Attention now turns to another entry.
Lookup: Find the recorded Peptide exchange belonging to 353 (YLFEMDSSL; listed as Homo sapiens) [compound 353] and report it.
Found: ″++″ (≥20% = ++)
